target-or-system: GABA-A receptor; alpha-1/beta-3/gamma-2 (Homo sapiens, UniProt P14867+P18507+P28472)
Sequence (P14867 whole entry): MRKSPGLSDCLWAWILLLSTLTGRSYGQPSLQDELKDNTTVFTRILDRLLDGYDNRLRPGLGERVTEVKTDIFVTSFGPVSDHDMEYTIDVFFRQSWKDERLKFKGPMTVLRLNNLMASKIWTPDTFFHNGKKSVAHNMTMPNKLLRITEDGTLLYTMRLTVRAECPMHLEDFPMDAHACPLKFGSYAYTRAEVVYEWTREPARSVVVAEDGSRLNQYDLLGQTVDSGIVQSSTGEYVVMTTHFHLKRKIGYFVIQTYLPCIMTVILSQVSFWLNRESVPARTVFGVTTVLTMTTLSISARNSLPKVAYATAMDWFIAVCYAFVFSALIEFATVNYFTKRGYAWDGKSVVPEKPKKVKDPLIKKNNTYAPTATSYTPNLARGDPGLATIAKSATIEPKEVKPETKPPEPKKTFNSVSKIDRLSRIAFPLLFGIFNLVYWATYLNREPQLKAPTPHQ
Sequence (P18507 whole entry): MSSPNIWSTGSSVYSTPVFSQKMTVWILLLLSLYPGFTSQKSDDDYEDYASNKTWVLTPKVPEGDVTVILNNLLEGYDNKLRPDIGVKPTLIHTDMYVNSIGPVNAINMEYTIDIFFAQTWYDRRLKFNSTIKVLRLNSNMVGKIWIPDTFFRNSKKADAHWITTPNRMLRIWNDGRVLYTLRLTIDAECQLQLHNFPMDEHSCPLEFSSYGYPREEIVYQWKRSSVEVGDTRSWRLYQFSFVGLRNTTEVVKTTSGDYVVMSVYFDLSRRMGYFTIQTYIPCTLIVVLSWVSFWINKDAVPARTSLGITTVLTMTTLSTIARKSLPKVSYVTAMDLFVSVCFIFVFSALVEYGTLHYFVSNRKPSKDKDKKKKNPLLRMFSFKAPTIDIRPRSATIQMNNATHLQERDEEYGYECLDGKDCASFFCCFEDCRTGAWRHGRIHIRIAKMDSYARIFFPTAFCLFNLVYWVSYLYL
Sequence (P28472 whole entry): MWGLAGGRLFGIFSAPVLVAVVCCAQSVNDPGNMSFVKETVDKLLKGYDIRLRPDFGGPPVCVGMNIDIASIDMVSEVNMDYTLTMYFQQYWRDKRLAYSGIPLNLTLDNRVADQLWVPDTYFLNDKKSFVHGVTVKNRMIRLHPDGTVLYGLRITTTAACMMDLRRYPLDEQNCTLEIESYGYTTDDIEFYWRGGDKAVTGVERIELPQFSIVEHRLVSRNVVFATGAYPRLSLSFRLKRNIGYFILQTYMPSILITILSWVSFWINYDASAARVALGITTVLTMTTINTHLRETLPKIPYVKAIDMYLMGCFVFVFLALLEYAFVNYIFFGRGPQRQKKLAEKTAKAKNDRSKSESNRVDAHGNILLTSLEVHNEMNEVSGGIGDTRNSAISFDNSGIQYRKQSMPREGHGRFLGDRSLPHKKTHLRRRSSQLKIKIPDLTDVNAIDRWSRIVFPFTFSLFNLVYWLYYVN
experimental-protocol: Binding affinity at human GABAA alpha-1-beta-3-gamma-2S expressed in Xenopus oocytes by voltage-clamp electrophysiology
value-kind: pKi
Keep it numeric: pKi is minus log10 of the concentration in mol/L.

Consider the reported pKi for these molecules:
>  <smiles-repr>
Oc1cc(C2CCNCC2)sn1

>  <pKi>
4.59

$$$$
>  <smiles-repr>
Oc1nsc(C2CCNCC2)c1Cc1ccc2ccccc2c1Br

>  <pKi>
8.52

$$$$

# evaluate next
Lookup: Entry `Oc1nsc(C2CCNCC2)c1Cc1ccccc1` : reported pKi = ?
Found: 6.33

Reference source: ChEMBL document CHEMBL1149421
